- System: KM12
- METHOD_NOTES: NCI tumour cell line growth inhibition, 48 h
Calls of active or inactive are those of the source. Cut-off read from the data, not from the text of the source: active = GI50 up to about 1.1 µM and inactive = higher. Where a SMILES comes first, the peptide text is derived from it. The star is where a group is joined. Boc = CC(C)(C)OC(=O)*; OBn = c1ccc(CO*)cc1
Thanks in advance; please answer with one of these: t = active, f = inactive

INSERT INTO measurements (compound, discrete_label) VALUES
  ('O=[N+]([O-])c1cc(-[n+]2cc([O-])on2)ccc1Cl', 'f'),
  ('COc1ccc(OC)c(-c2cc(O)c3cc4c(cc3n2)OCO4)c1', 'f'),
  ('CN(Cc1cnc2nc(N)nc(N)c2n1)c1ccc(C(=O)NC(CO)CCCO)cc1 (centres undefined)', 'f');

Hey, what did the test say about COc1cc(C(c2ccc3c(c2)OCO3)C2SCCCS2)cc(OC)c1OC (centres undefined) ? f

Hey, what did the test say about CC(C)N1C(C)[C@@H](c2ccccc2)O[P@@]1(=O)CC1=CCCCC1 (some centres undefined) ? f

Hey, what did the test say about CC(NC(=O)C(Cc1ccccc1)NC(=O)C(Cc1ccccc1)NC(=O)OC(C)(C)C)C(=O)OCc1ccccc1 (stereo not drawn) (Boc-Phe-Phe-Ala-OBn; configuration not given here) ? f

Hey, what did the test say about Cn1c(=O)nc2n(-c3cc(C(F)(F)F)cc(C(F)(F)F)c3)c3ccccc3nc-2c1=O ? f

Hey, what did the test say about CN(C)/C=N/NC(=O)/C(C#N)=C/N(C)C ? f

Hey, what did the test say about Cc1ccc(O)c(-c2cc(-c3ccccc3)nc(/N=C\c3ccccc3)n2)c1 ? f

Hey, what did the test say about CCOc1ccc2nc(NC(=O)C(=O)C(c3cnc4ccccc4n3)[N+](=O)[O-])sc2c1 (centres undefined) ? f

Hey, what did the test say about COc1ccc(NC(=S)N/N=C(\c2ccccc2)c2ccccn2)cc1 ? t

Hey, what did the test say about CCC(=O)NCC1CCCN2CCCCC12 (centres undefined) ? f

Hey, what did the test say about Cn1c([C@H](C#N)c2ncccc2[N+](=O)[O-])nc2ccccc21 ? f

Hey, what did the test say about CC1(C)C(=O)/C(=C/c2ccccc2)C(C)(C)C1(C)C ? f

Hey, what did the test say about COC/C=C\COC ? f

Hey, what did the test say about COc1cc2c(cc1OCCCC(=O)Nc1cc(C(=O)Nc3cc(C(=O)Nc4cc(C(=O)NCCCN(C)C)n(C)n4)n(C)n3)n(C)n1)N=CC1CCCN1C2=O (centres undefined) ? f

====

- Tested on: MOLT-4
- METHOD_NOTES: NCI tumour cell line growth inhibition, 48 h
Calls of active or inactive are those of the source. No stated cut-off is given here; in the data, active = GI50 up to about 1.1 µM and inactive = higher.
QUANTITY: GI50

The examples below pair each entry with its known result.
INSERT INTO measurements (compound, readout_value) VALUES
  ('Cc1c(N)nc([C@H](CC(N)=O)NC[C@H](N)C(N)=O)nc1C(=O)N[C@H](C(=O)N[C@H](C)[C@@H](O)CC(=O)N[C@H](C(=O)NC(O[C@@H]1O[C@@H](C)[C@@H](N)[C@@H](O)[C@H]1O)C(O)c1nc(-c2nc(C(=O)NCCCCN)cs2)cs1)[C@@H](C)O)[C@@H](O[C@@H]1O[C@@H](CO)[C@@H](O)[C@H](O)[C@@H]1O[C@H]1O[C@H](CO)[C@@H](O)[C@H](OC(N)=O)[C@@H]1O)c1c[nH]cn1 (some centres not stated)', '> 39.9 µM (inactive)'),
  ('Cc1nnc(N)nc1C/C=C/C(C)Sc1ccc(Cl)cc1 (configuration not stated)', '3.7 µM (inactive)'),
  ('Cc1ccc(NC(=O)CC(=O)N2N=C(N(CCC#N)c3cccc(C)c3)CC2c2ccccc2)cc1 (configuration not stated)', '> 100 µM (inactive)'),
  ('COc1cc2c(cc1OCCCC(=O)Nc1cc(C(=O)Nc3cc(C(=O)Nc4cc(C(=O)NCCCN(C)C)n(C)n4)n(C)n3)n(C)n1)N=CC1CCCN1C2=O (configuration not stated)', '3.01 µM (inactive)'),
  ('O=C1c2ccccc2-c2c1c1ccccc1c(=O)n2Cc1ccccc1', '> 100 µM (inactive)'),
  ('CCSc1s/c(=N/c2ccc(/N=c3\sc(C)c(SC)s3)cc2)sc1-c1ccc(C)cc1', '> 100 µM (inactive)'),
  ('NC(CCC(=O)Nc1ccc(O)cc1)C(=O)O (configuration not stated)', '> 100 µM (inactive)'),
  ('O=C1c2c(nc3ccccc3c2-c2ccccc2)CN1Nc1ccccc1', '> 100 µM (inactive)'),
  ('C=CCC12CC(=O)CCC1c1ccc(OC)cc1C2=O (configuration not stated)', '> 100 µM (inactive)'),
  ('NC1CC(n2ccc(=O)[nH]c2=O)OC1C(O)CO (configuration not stated)', '> 100 µM (inactive)');

In one line, give reported GI50 of the entry Cc1cn(C(=O)NC23CC4CC(CC(C4)C2)C3)c(=O)[nH]c1=O . 41.5 µM (inactive)

In one line, give reported GI50 of the entry Cc1ccc(Nc2nc(C)c(C(/C=C/c3ccc(/C=C/C(=N/NC(=O)C[n+]4ccccc4)c4sc(Nc5ccc(C)cc5[N+](=O)[O-])nc4C)cc3)=N\NC(=O)C[n+]3ccccc3)s2)c([N+](=O)[O-])c1 . 76.7 µM (inactive)

In one line, give reported GI50 of the entry COc1cc(CC(C(=O)O)C(=O)O)c(OC)cc1CC(C(=O)O)C(=O)O . > 100 µM (inactive)
